biological target: Protein arginine N-methyltransferase 5 (Homo sapiens, UniProt O14744); experiment: Inhibition of recombinant human PRMT5 using histone H2A as substrate by hotspot assay; settings: read-out: IC50
Sequence (O14744 whole entry): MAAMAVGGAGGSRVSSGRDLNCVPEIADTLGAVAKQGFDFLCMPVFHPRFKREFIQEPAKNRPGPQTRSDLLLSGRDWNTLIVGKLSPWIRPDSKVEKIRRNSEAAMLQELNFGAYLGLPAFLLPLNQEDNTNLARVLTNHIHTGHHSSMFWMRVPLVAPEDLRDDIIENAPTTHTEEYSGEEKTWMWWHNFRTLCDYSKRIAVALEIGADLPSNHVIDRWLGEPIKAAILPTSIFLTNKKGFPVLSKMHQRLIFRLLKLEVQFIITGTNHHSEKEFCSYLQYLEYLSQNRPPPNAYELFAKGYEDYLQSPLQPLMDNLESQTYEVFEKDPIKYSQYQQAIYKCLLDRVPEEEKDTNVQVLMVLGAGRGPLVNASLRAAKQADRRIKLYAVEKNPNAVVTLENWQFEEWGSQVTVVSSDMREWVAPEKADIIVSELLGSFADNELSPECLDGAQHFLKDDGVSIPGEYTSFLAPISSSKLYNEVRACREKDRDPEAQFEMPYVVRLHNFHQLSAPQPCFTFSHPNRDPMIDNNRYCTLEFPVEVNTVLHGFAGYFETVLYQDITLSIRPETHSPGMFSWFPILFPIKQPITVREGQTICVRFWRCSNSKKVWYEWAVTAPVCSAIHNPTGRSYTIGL
Record form. Attribute: IC50. Fill in for each entry.
Numbers only, in µM.

Substance smiles: CC(C)(C)c1ccc(NC(=O)c2ncn(CC(=O)NCc3ccc4c(N)nccc4c3)n2)cc1
Target under test: Protein arginine N-methyltransferase 5 (Homo sapiens, UniProt O14744)
Quantitative readout: 113

Next:
Entry CC(C)(C)c1ccc(NC(=O)c2ncn(CC(=O)NCCn3ccc4c(N)ncnc43)n2)cc1 under Protein arginine N-methyltransferase 5 (Homo sapiens, UniProt O14744) had IC50 of 165
